Selectivity ratio values for the compounds below.
Species: Rattus norvegicus
Assay: Selectivity for adrenergic Alpha-1B receptor in Wistar rat spleen over adrenergic alpha1A receptor in Wistar rat prostatic vas deferens
Format: tissue-based

Previously resolved entries follow.
> print(dat)
                                   compound  observedvalue
1  COc1ccccc1N1CCN(C[C@H]2CO[C@@](CN3CCCCC3=O)(c3ccccc3)O2)CC1            0.3
2  COc1ccccc1N1CCN(C[C@@H]2CO[C@@](CN3C(=O)CCCC3=O)(c3ccccc3)O2)CC1 (relative stereo)              1
3  COc1ccccc1N1CCN(C[C@H]2CO[C@@](CN3C(=O)CCCC3=O)(c3ccccc3)O2)CC1 (relative stereo)              1

Please report Selectivity ratio for the following compound: COc1ccccc1N1CCN(CC2OCC(c3ccccc3)(c3ccccc3)O2)CC1 (centres undefined)
36
